Reported inhibition at 10 µM values for the following compounds.
Test system: MDA-MB-435
Assay: NCI-60 one-dose assay
Type: cell-based
Conditions: Homo sapiens, MDA-MB-435 (Melanoma), read-out: Cell Inhibition Percent
Expressed in %, but write only the number.

compound | inhibition at 10 µM [%]
CN(C)c1ccc(C=NNC(=O)c2ccc3[nH]c(-c4ccc(Cl)cc4)nc3c2)cc1 [Compound 4b] | 0
O=C(NN=Cc1ccc(F)cc1)c1ccc2[nH]c(-c3ccc(Cl)cc3)nc2c1 [Compound 4d] | 6.12
O=C(NN=Cc1ccc(Cl)cc1Cl)c1ccc2[nH]c(-c3ccc(Cl)cc3)nc2c1 [Compound 4f] | 0
CCNC(=S)NNC(=O)c1ccc2[nH]c(-c3ccc(Cl)cc3)nc2c1 [Compound 5] | 0.91
O=C(NN=Cc1ccc(Cl)cc1)c1ccc2[nH]c(-c3ccc(Cl)cc3)nc2c1 [Compound 4e] | 61.2

Bench note, MDA-MB-435: entry COc1ccc(C=NNC(=O)c2ccc3[nH]c(-c4ccc(Cl)cc4)nc3c2)cc1 [Compound 4g] , its inhibition at 10 µM = 31.5

Bench note, MDA-MB-435: entry COc1cc(/C=N/NC(=O)c2ccc3[nH]c(-c4ccc(Cl)cc4)nc3c2)cc(OC)c1OC [Compound 4h] , its inhibition at 10 µM = 36

----------
System: EKVX
Assay: NCI-60 one-dose assay
Type: cell-based
Settings: Homo sapiens, EKVX (Non-Small Cell Lung Cancer), read-out: Cell Inhibition Percent
From the text: The final compounds were submitted to the National Cancer Institute, Bethesda, USA, for screening in vitro for anti-cancer. […] compounds, 4a–j, 5, and 6, were selected according to the Development Therapeutic Program (DTP) protocol. […]
observed property: inhibition at 10 µM (%)
Expressed in %, but write only the number.

Before answering, review these 6 worked examples.
molecule | inhibition at 10 µM, %
CN(C)c1ccc(C=NNC(=O)c2ccc3[nH]c(-c4ccc(Cl)cc4)nc3c2)cc1 [Compound 4b] | 2.85
CCn1c(-c2ccc3[nH]c(-c4ccc(Cl)cc4)nc3c2)n[nH]c1=S [Compound 6] | 0.44
O=C(NN=Cc1ccccc1)c1ccc2[nH]c(-c3ccc(Cl)cc3)nc2c1 [Compound 4a] | 1.38
O=C(NN=Cc1ccc(F)cc1)c1ccc2[nH]c(-c3ccc(Cl)cc3)nc2c1 [Compound 4d] | 26.8
COc1cc(/C=N/NC(=O)c2ccc3[nH]c(-c4ccc(Cl)cc4)nc3c2)cc(OC)c1OC [Compound 4h] | 4.23
O=C(NN=Cc1ccc([N+](=O)[O-])cc1)c1ccc2[nH]c(-c3ccc(Cl)cc3)nc2c1 [Compound 4c] | 51

Looking up CCNC(=S)NNC(=O)c1ccc2[nH]c(-c3ccc(Cl)cc3)nc2c1 [Compound 5] , I found its inhibition at 10 µM recorded as 18.2

Looking up O=C(NN=Cc1ccc(Cl)cc1Cl)c1ccc2[nH]c(-c3ccc(Cl)cc3)nc2c1 [Compound 4f] , I found its inhibition at 10 µM recorded as 13.7

----------
Reported inhibition at 10 µM values for the following molecules.
Test system: MDA-MB 231
Test: NCI-60 one-dose assay
Format: cell-based
Conditions: Homo sapiens, MDA-MB 231 (Breast Cancer), read-out: Cell Inhibition Percent
Number first, unit second.

molecule | target or system | inhibition at 10 µM
CN(C)c1ccc(C=NNC(=O)c2ccc3[nH]c(-c4ccc(Cl)cc4)nc3c2)cc1 [Compound 4b] | MDA-MB 231 | 15.6%
O=C(NN=Cc1ccc(F)cc1)c1ccc2[nH]c(-c3ccc(Cl)cc3)nc2c1 [Compound 4d] | MDA-MB 231 | 36.1%
CCNC(=S)NNC(=O)c1ccc2[nH]c(-c3ccc(Cl)cc3)nc2c1 [Compound 5] | MDA-MB 231 | 20.5%

Looking up CCn1c(-c2ccc3[nH]c(-c4ccc(Cl)cc4)nc3c2)n[nH]c1=S [Compound 6] , I found its inhibition at 10 µM recorded as 2.36%

Looking up COc1cc(/C=N/NC(=O)c2ccc3[nH]c(-c4ccc(Cl)cc4)nc3c2)cc(OC)c1OC [Compound 4h] , I found its inhibition at 10 µM recorded as 0%

Looking up O=C(NN=Cc1ccc(Cl)cc1Cl)c1ccc2[nH]c(-c3ccc(Cl)cc3)nc2c1 [Compound 4f] , I found its inhibition at 10 µM recorded as 11.4%

Looking up O=C(NN=Cc1ccccc1)c1ccc2[nH]c(-c3ccc(Cl)cc3)nc2c1 [Compound 4a] , I found its inhibition at 10 µM recorded as 0%

Looking up O=C(NN=Cc1ccc([N+](=O)[O-])cc1)c1ccc2[nH]c(-c3ccc(Cl)cc3)nc2c1 [Compound 4c] , I found its inhibition at 10 µM recorded as 23.1%

Looking up COc1ccc(C=NNC(=O)c2ccc3[nH]c(-c4ccc(Cl)cc4)nc3c2)cc1 [Compound 4g] , I found its inhibition at 10 µM recorded as 60.2%

Looking up O=C(N/N=C/c1ccc(O)cc1)c1ccc2[nH]c(-c3ccc(Cl)cc3)nc2c1 [Compound 4i] , I found its inhibition at 10 µM recorded as 2.75%

Looking up O=C(NN=Cc1ccc(Cl)cc1)c1ccc2[nH]c(-c3ccc(Cl)cc3)nc2c1 [Compound 4e] , I found its inhibition at 10 µM recorded as 90.5%

----------
Tested on: SN12C
Test: NCI-60 one-dose assay
Format: cell-based
Conditions: Homo sapiens, SN12C (Renal Cancer), read-out: Cell Inhibition Percent
Grouping key: inhibition at 10 µM. Bins: b0 (below 1%), b1 (1% to below 60%), b2 (60% or more)

Reference set, count: 5
test smiles | classification
O=C(NN=Cc1ccc(Cl)cc1)c1ccc2[nH]c(-c3ccc(Cl)cc3)nc2c1 | b2
O=C(NN=Cc1ccccc1)c1ccc2[nH]c(-c3ccc(Cl)cc3)nc2c1 | b1
COc1ccc(C=NNC(=O)c2ccc3[nH]c(-c4ccc(Cl)cc4)nc3c2)cc1 | b2
CCn1c(-c2ccc3[nH]c(-c4ccc(Cl)cc4)nc3c2)n[nH]c1=S | b0
O=C(NN=Cc1ccc([N+](=O)[O-])cc1)c1ccc2[nH]c(-c3ccc(Cl)cc3)nc2c1 | b2

*Q* Bin? CCNC(=S)NNC(=O)c1ccc2[nH]c(-c3ccc(Cl)cc3)nc2c1
*A* b1

*Q* Bin? CN(C)c1ccc(C=NNC(=O)c2ccc3[nH]c(-c4ccc(Cl)cc4)nc3c2)cc1
*A* b1

*Q* Bin? O=C(N/N=C/c1ccc(O)cc1)c1ccc2[nH]c(-c3ccc(Cl)cc3)nc2c1
*A* b0

*Q* Bin? O=C(NN=Cc1ccc(Cl)cc1Cl)c1ccc2[nH]c(-c3ccc(Cl)cc3)nc2c1
*A* b1

*Q* Bin? COc1cc(/C=N/NC(=O)c2ccc3[nH]c(-c4ccc(Cl)cc4)nc3c2)cc(OC)c1OC
*A* b1

----------
Target: BRAF^V600E
Sequence (P28028 whole entry V585E): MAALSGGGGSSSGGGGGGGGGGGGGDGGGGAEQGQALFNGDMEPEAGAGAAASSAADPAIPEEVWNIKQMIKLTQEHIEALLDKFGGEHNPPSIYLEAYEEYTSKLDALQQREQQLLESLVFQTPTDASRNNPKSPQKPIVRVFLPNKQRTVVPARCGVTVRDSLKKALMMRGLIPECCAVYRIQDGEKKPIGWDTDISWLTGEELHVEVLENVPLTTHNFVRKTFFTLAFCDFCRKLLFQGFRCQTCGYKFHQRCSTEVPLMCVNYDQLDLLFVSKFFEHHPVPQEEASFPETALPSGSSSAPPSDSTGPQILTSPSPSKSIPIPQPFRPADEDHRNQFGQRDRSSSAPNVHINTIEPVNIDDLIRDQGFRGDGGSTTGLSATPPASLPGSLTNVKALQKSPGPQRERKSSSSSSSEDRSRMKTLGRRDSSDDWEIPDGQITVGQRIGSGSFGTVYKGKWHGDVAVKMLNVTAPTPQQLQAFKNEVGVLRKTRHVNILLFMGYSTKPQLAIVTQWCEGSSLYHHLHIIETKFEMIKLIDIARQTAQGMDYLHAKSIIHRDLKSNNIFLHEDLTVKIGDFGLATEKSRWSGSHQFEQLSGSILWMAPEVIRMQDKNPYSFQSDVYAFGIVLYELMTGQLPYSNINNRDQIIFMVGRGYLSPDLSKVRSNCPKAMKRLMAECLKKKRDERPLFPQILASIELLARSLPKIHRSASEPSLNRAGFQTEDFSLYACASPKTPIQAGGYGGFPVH
Test: biochemical
observed property: pIC50
The read-out pIC50 is expressed as -log10 of concentration in moles per litre.

molecule | pIC50
COc1cc(/C=N/NC(=O)c2ccc3[nH]c(-c4ccc(Cl)cc4)nc3c2)cc(OC)c1OC [Compound 4h] | 6.09
O=C(NN=Cc1ccc(Cl)cc1)c1ccc2[nH]c(-c3ccc(Cl)cc3)nc2c1 [Compound 4e] | 6.70
COc1ccc(C=NNC(=O)c2ccc3[nH]c(-c4ccc(Cl)cc4)nc3c2)cc1 [Compound 4g] | 6.22

# evaluate next
Looking up O=C(NN=Cc1ccc([N+](=O)[O-])cc1)c1ccc2[nH]c(-c3ccc(Cl)cc3)nc2c1 [Compound 4c] , I found its pIC50 recorded as 6.51

----------
System: M14
Assay: NCI-60 one-dose assay
Type: cell-based
Settings: Homo sapiens, M14 (Melanoma), read-out: Cell Inhibition Percent
observed property: inhibition at 10 µM (%)
Expressed in %, but write only the number.

Before answering, review these 2 worked examples.
molecule | observed property | u | observed measurement
O=C(N/N=C/c1ccc(O)cc1)c1ccc2[nH]c(-c3ccc(Cl)cc3)nc2c1 [Compound 4i] | inhibition at 10 µM | % | 0.44
O=C(NN=Cc1ccc([N+](=O)[O-])cc1)c1ccc2[nH]c(-c3ccc(Cl)cc3)nc2c1 [Compound 4c] | inhibition at 10 µM | % | 74.1

Looking up O=C(NN=Cc1ccc(Cl)cc1Cl)c1ccc2[nH]c(-c3ccc(Cl)cc3)nc2c1 [Compound 4f] , I found its inhibition at 10 µM recorded as 17.1

Looking up O=C(NN=Cc1ccc(F)cc1)c1ccc2[nH]c(-c3ccc(Cl)cc3)nc2c1 [Compound 4d] , I found its inhibition at 10 µM recorded as 39.8

Looking up O=C(NN=Cc1ccccc1)c1ccc2[nH]c(-c3ccc(Cl)cc3)nc2c1 [Compound 4a] , I found its inhibition at 10 µM recorded as 8.89

Looking up COc1ccc(C=NNC(=O)c2ccc3[nH]c(-c4ccc(Cl)cc4)nc3c2)cc1 [Compound 4g] , I found its inhibition at 10 µM recorded as 73.8

Looking up CN(C)c1ccc(C=NNC(=O)c2ccc3[nH]c(-c4ccc(Cl)cc4)nc3c2)cc1 [Compound 4b] , I found its inhibition at 10 µM recorded as 3.58

Looking up COc1cc(/C=N/NC(=O)c2ccc3[nH]c(-c4ccc(Cl)cc4)nc3c2)cc(OC)c1OC [Compound 4h] , I found its inhibition at 10 µM recorded as 58
